Target: PfCRT^Dd2 (Plasmodium falciparum, UniProt Q9N623, A220S/I356T/K76T/M74I/N326S/N75E/Q271E/R371I)
Sequence (Q9N623 whole entry A220S/I356T/K76T/M74I/N326S/N75E/Q271E/R371I): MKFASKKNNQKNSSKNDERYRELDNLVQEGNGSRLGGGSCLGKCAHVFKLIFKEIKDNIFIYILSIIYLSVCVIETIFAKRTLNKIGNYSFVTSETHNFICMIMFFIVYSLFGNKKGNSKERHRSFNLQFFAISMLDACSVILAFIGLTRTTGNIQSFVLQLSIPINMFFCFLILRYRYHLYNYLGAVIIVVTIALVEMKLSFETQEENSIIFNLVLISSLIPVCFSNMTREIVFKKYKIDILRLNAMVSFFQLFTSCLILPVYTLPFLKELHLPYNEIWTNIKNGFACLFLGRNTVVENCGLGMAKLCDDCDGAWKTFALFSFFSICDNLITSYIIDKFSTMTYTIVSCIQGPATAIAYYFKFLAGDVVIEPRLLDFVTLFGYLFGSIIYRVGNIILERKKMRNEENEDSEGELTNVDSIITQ
Test: cell-based
Assay type: cell-based
Settings: […], pH 5.5, read-out: PfCRT-mediated [3H]CQ transport, trans-stimulation (% PfCRTDd2 control), [test solute]i = 5 mM (intracellular); PfCRTDd2 oocytes; normalised to oocyte type control
experimental-endpoint: activity at 5000 µM (%)
Expressed in %, but write only the number.

Which activity at 5000 µM is reported for this compound? "NC(=O)CC[C@H](N)C(=O)O"
99

Same lookup for "C[C@@H](O)[C@H](N)C(=O)O" , please.
96

And the next one, "CC[C@H](C)[C@H](N)C(=O)O" ?
94

Further, for "CC(C)[C@H](N)C(=O)O" ?
97

Record: "N[C@@H](CCC(=O)O)C(=O)O"
99

Same for "N[C@@H](CO)C(=O)O"
97

// repeat for "N=C(N)NCCC[C@H](N)C(=O)O" and report
98

Note, next up: "N[C@@H](Cc1ccccc1)C(=O)O"
99

###

What Total [3H]CQ transport, trans-stimulation by injected solute was measured for each of the following?
Target: PfNT1 (Plasmodium falciparum, UniProt Q8IDM6)
Construct: expressed in transfected cells; host or cells: Xenopus laevis oocytes (stage V-VI), cRNA-injected
Sequence (Q8IDM6 whole entry): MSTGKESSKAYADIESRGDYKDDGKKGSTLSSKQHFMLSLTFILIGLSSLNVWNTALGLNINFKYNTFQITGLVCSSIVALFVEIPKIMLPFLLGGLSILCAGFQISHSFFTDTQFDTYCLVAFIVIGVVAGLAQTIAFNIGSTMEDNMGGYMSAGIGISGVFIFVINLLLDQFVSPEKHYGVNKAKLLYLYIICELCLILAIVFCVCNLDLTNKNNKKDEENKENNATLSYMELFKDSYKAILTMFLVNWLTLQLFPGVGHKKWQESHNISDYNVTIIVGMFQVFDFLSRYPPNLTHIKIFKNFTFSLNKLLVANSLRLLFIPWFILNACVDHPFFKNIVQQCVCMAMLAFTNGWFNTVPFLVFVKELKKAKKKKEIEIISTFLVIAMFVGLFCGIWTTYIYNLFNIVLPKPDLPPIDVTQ
Experiment: cell-based
Type: cell-based
Settings: PfNT1 oocytes; footnote b: highest intracellular concentration tested was 30 mM (solubility)

Which measured Total [3H]CQ transport, trans-stimulation by injected solute value corresponds to FESFGDLSTPDAVMGNPKVK [FK-20, additional peptide, 20 residues] ?
4.2 ± 0.03b % of the PfCRTDd2 control

Follow-up entry: NAVAHVDDMPNALSALSDLH [NH-20, additional peptide, 20 residues]
3.2 ± 0.07b % of the PfCRTDd2 control

Also check SFGDLSTPDAVMG [SG-13]
2.9 ± 0.09b % of the PfCRTDd2 control

And the next one, LTPEEKSAVTALWGKVNVDEVGGEA [LA-25, additional peptide, 25 residues] ?
2.7 ± 0.07b % of the PfCRTDd2 control

And what about the sequence DDEGDDDPVPLPNVNA [DA-16, additional peptide, 16 residues] ?
3.3 ± 0.07b % of the PfCRTDd2 control

###

System: C2^GC03 parasites
Test: P. falciparum proliferation assay
Type: cell-based
Details: Plasmodium falciparum, C2GC03, 72 h, 37 °C, SYBR Safe, mean ± SEM, n = 5, read-out: IC50 (nM), parasite proliferation, Control
experimental-endpoint: IC50 (nM)
Could you give me the number in nM? Just the number is fine.

Suppose we examine the molecule CCN(CC)CCCC(C)Nc1ccnc2cc(Cl)ccc12 (stereo not shown) [CQ, chloroquine, reference compound] ; what IC50 value has been reported?
27

###

Target: PfCRT^3D7 (Plasmodium falciparum)
Sequence (Q8IBZ9 59-398): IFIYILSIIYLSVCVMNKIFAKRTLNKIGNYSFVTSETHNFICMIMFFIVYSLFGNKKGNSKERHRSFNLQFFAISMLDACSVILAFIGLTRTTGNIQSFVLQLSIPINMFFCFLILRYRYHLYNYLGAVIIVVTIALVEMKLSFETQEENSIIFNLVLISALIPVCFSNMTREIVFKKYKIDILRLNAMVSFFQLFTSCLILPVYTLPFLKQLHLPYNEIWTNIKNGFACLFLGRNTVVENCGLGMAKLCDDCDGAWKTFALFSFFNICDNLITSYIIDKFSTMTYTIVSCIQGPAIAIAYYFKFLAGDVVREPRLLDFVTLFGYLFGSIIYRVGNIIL
Experiment: cell-based
Format: cell-based
Conditions: [test solute]i = 5 mM (intracellular); PfCRT3D7 oocytes; normalised to oocyte type control
experimental-endpoint: PfCRT-mediated [3H]CQ transport, trans-stimulation (% PfCRT3D7 control)
A number alone suffices; assume % PfCRT3D7 control.

Quick check: PfCRT-mediated [3H]CQ transport, trans-stimulation (% PfCRT3D7 control) of LHVDPENF [LF-8] ?
97

Continue with LSFPTTK [LK-7]
93

Param item: HVDDMPNA [HA-8]
99

Then HVDPENFRL [HL-9] ?
98

What about VHLTPEEK [VK-8] ?
132

Next substance: PHFDLS [PS-6]
140

Follow-up entry: VDPVNFK [VK-7]
128

What about this substance? DLDDALDK [DK-8]
96

Lookup HVDPEN [HN-6]
148

Next substance: HVDDMPN [HN-7]
142

Then this substance: DLHAHKLR [DR-8]
130

Cool, now DTSLKPIS [DS-8]
135

Field entry: FSDGLA [FA-6]
134

KEFTPPVQA [KA-9] ?
130

Try this substance too: LSDLHAHK [LK-8]
98

Moving on to VVYPWTQR [VR-8]
96

Next substance up: AEALERMF [AF-8]
97

Param item: YFPHFDLS [YS-8]
96
